What apparent KD of MS2 coat protein was measured for each of the following?
test system: MS2 coat protein; assay: apparent KD of MS2 coat protein; higher = weaker reporter binding; conditions: Eterna round: R107; input ligand: tryptophan 2.4 mM
Supply the numeric figure in nM, leaving out any unit text.

Input GAUACCAUGAUCCUCCUGGUAUCGGCUGAUACCAGCCAGCUGACUGGCCCUUGGCAGCAGCAUACAUGAGGAUCACCCAUGUUAA [(T)''-(M)'-(T)'-(Theo)-(Ms2)_Design4] . Output apparent KD of MS2 coat protein: 61

Input CCUGAUAACUGAAGGAGCGAGAAACCCUACAUGAGGAUCACCCAUGUAUACACGGGAACUUCUCAGGUAGGUCGCAGUUUGUCAG [Adiso] . Output apparent KD of MS2 coat protein: 71.5

Input UAUCCACAUGAGGAUCACCCAUGUUAGGAAGGAGCGGUGAAUGAACCAGGUAGGUCGCCUAGGUGAGGACCAUCUAUGGAUUCGU [Exclusion - Arginine A (Freestyle 12)] . Output apparent KD of MS2 coat protein: 13.1

Input CCCAAAUAGAUAUUUGGGAUUUUACUCGAAGGAGCGUCAUAGUAGGCAGGUAGGUCGCGAGACAUGAGGAUCACCCAUGUAGAGA [ss-argA-N] . Output apparent KD of MS2 coat protein: 40.9

Input CUGGACAUGAGGAUCACCCAUGUAAAUCCUCGAGGACCGGUACGGCCGCCACUCGAACGAGUGGCGCGCGAGCGCGCGCUCGCGC [aJa] . Output apparent KD of MS2 coat protein: 45.5

Input GCGUCGGUCGGAAGGAGCGACAUGAGGAUCACCCAUGUCUCCCGUUAUGGGAGUUCCUUAGGUCAGGUAGGUCGCCGACGGACGC [#1 Exclusion - Arginine B Attempt #19 (Inspired by Omei)] . Output apparent KD of MS2 coat protein: 196

Input GAAGAGACCUCGGCCGCCACUCGCCAUGAGGAUCUCCCAUGUAACAUGAGGAUCACCCAUGUACAGAGGACCGGGAGGUCCUAGU [Same State Tryptophan B GF 14] . Output apparent KD of MS2 coat protein: 50.1

Input UAUCUUGCGGGCGCCCGCAAGGUUGCGGAUACCAGCGAGAUAAAUCGCCCUUGGCAGCCGAACAUGAGGAUCACCCAUGUCGGAC [Same State - Theophylline A Attempt #1 (HarryS)] . Output apparent KD of MS2 coat protein: 9.87

Input CUUCAACAUGAGGAUCACCCAUGUAGUGAUACCAGUCACUCAUACGACCCUUGGCAGCACAUUUUCUGUCGGCAUGUAGACGAUC [theeternabot_sameState_MS2_Theo_A_33] . Output apparent KD of MS2 coat protein: 173

Input AGCAUGUUAUCAGAUACCAGACAUCUUUUAAUACAUAUUACAUGAGGAUCACCCAUGUUGGUCCCUUGGCAGCUGAAAUAUUUCA [JR_Nu_SSTheophyB_Sub023] . Output apparent KD of MS2 coat protein: 360

Input UAACAUGAGGCGGCCGCCACUCAACAUGAGGAUCACCCAUGUAUGUGUAAACAUGAGGAUCACCCGAGGACCGGGCCCUUGUAAU [Same State Tryptophan B 4] . Output apparent KD of MS2 coat protein: 54.2

Input AGCAGUACAACAGAUACCAGACUUUUCAUGCCUUUAAUUACAUGAGGAUCACCCAUGUUUGUCCCUUGGCAGCUGUUGUACUGCA [JR_ExcTheophyB_Sub011] . Output apparent KD of MS2 coat protein: 39.9

Input CCGGGCUGUGGAGACAUAGCCCGGACUGAAGGAGCGGGAAUAAACCCAGGUAGGUCGCAGAGAUCCACAUGAGGAUCACCCAUGU [!0.S] . Output apparent KD of MS2 coat protein: 36.7

Input AAUUAUUUCUCAAUUAUUUAAUCUUCAGAAGGAGCGUGAUGAUUCACAGGUAGGUCGCUGAUGACAUGAGGAUCACCCAUGUAUU [JR_SSArginiA_Sub003] . Output apparent KD of MS2 coat protein: 27.5

Input CGUCAACAUGAGGAUCACCCAUGUUUCGAUACCAGUGACCCUCUCCACCCUUGGCAGCGAGCGCCCGCGCCUGAUAAAUCUUCUA [theeternabot_sameState_MS2_Theo_A_18] . Output apparent KD of MS2 coat protein: 14.1

Input ACGACGCAUAGUGAUACCAGCACAACAUGAGGAUCACCCAUGUCACUUAUGUAGUAAUAAUGCCCUUGGCAGCACUAUGCGUCAG [SSTheo B #1] . Output apparent KD of MS2 coat protein: 52.6
